Each record here notes measured PBM binding z-score.
- Tested on: LXRb homodimer (NR concentration 270 nM)
- ASSAY_NAME: PBM binding z-score (relative to random genomic background probes); higher = stronger binding; sequences stand for … in GC…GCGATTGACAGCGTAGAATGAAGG
// response body must contain only the number

Here is how some sequences turned out for PBM binding z-score.
>  <CHAIN>
CCAGACAGGTGAACGGTAACTCAGTCTGGTACGC

>  <PBM binding z-score>
-0.29

$$$$
>  <CHAIN>
ATCTCTAGGTAACAAGTACAGTGAAAGAGAGGAC

>  <PBM binding z-score>
0.894

$$$$
>  <CHAIN>
ATCTCAAGGTAAAGTTCAGTGAAAGATCGATAGA

>  <PBM binding z-score>
0.854

$$$$
>  <CHAIN>
GCGACTGGGGCACCAGCAGGTTACCATAACTTAA

>  <PBM binding z-score>
-1.41

$$$$
>  <CHAIN>
TGAATGAGGTTATAAGTTCAGGGAACGTTGCAAA

>  <PBM binding z-score>
-0.136

$$$$

Query block: API: value(readout= PBM binding z-score, system= LXRb homodimer (NR concentration 270 nM), query= `CCTACTGGGCCATCAGGTAATTGATATCAACGTT` )
Result block: -0.373

Query block: Input `TTACCAAGGTGAAAGGTCGTTGGTGCACGCCTTG`
Result block: -0.67

Query block: Next sequence: `CCGAGTAGCTTATGGGGCATTCAGGCAACGGTGA`
Result block: -1.2

Query block: Same read-out for `GCTAGCAGGACATTTGGGTCACTCAATGACGGGC` ?
Result block: -0.72

Query block: Subsequent entry: `CCGAGTAGGTTATGGGGCTTTCAGGCAACGGTGA`
Result block: -0.205

----------
- Test system: LXRa homodimer (NR concentration 270 nM)
- ASSAY_NAME: PBM binding z-score (relative to random genomic background probes); higher = stronger binding; sequences stand for … in GC…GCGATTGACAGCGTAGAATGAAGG
PBM binding z-score: recorded values
Returns: the value as a bare number; no unit string appended.

>  <CHAIN>
CCTTACGGGTCACGAGGTTATCGCACGACGAGCG

>  <TESTED_TARGET>
LXRa homodimer (NR concentration 270 nM)

>  <PBM binding z-score>
0.648

$$$$

Query block: # input sequence: `ATACCAAGGTGATCGTAAGGTCGTTGATACTAAC` ; wanted: its PBM binding z-score
Result block: 0.729

Query block: Also, `AGAATGAGGTTATCAAAGATCAGGGAAACGCTTG` please.
Result block: -0.032

Query block: Also check `TCCTATAGGTAAATGCTAGGTGAAAGTCCGATCT`
Result block: -0.157

Query block: Repeat for the following sequence: `TCTCGGAGGACACGAAGGTCACAGCTTTCCAGAG`
Result block: 1.52

----------
- Test system: VDR:RXRa (NR concentration 270 nM, RXRa partner concentration 90 nM)
- ASSAY_NAME: PBM binding z-score (relative to random genomic background probes); higher = stronger binding; sequences stand for … in GC…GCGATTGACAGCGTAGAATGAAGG
VALUE_KIND: PBM binding z-score
Please reply with the number alone, leaving off any unit.

Use the examples below as a reference point.
>  <CHAIN>
TCTTGTAGATCAATAGAGGTTAAGAAAGTGCGCT

>  <VALUE_KIND>
PBM binding z-score

>  <OBSERVED_MEASUREMENT>
1.8

$$$$
>  <CHAIN>
CGAACTAGGTAATCCAGGACAGTGAATACATTGA

>  <VALUE_KIND>
PBM binding z-score

>  <OBSERVED_MEASUREMENT>
0.209

$$$$

Proceed to the following item.
Query block: Requested read-out: PBM binding z-score. Entry: `CGAACTAGGGCATGAGTTGATAGCAAATGCCGAT`
Result block: 0.0428
